Hey, just so you know, these numbers are from patent US20200038399A1.

# System: Streptococcus pneumoniae ATCC 49619
# PROCEDURE_DETAILS: checkerboard synergy assay with iclaprim
# Assay type: cell-based
# CONDITION_SET: antibiotic in combination with iclaprim; S. pneumoniae 49619
# Experimental: The synergistic potential of iclaprim against Gram-positive and Gram-negative bacteria was determined using the checkerboard assay as described in Eliopoulos GM and Moellering, Jr. […] Two different dilutions were used for iclaprim depending on the MIC determined for the bacterium. […]
Positions of bridges follow the written chain, without caps; N, C: chain ends. Non-standard residues stand in square brackets, D forms with d. Residues, ends and D or L forms follow the SMILES beside them. *: point of attachment. Ileψ(thiazoline)Cys = CC[C@H](C)[C@H](N)C1=N[C@H](C(=O)*)CS1; dOrn = NCCC[C@@H](N)C(=O)O
EXPERIMENTAL_READOUT: Σ FIC

1) C=C(NC(=O)C(=C)NC(=O)c1csc(C2=N[C@@H]3c4csc(n4)[C@H]4NC(=O)c5csc(n5)[C@H]([C@](C)(O)[C@@H](C)O)NC(=O)[C@H]5CSC(=N5)/C(=C/C)NC(=O)[C@H]([C@@H](C)O)NC(=O)c5csc(n5)[C@]3(CC2)NC(=O)[C@H](C)NC(=O)C(=C)NC(=O)[C@H](C)NC(=O)[C@H]([C@@H](C)CC)N[C@@H]2C=Cc3c([C@H](C)O)cc(nc3[C@H]2O)C(=O)O[C@@H]4C)n1)C(N)=O | 1.12-1.50

Turning now to a further record.
Dear colleague, please send me the reported Σ FIC for CC[C@H](C)[C@H](N)C1=N[C@H](C(=O)N[C@@H](CC(C)C)C(=O)N[C@H](CCC(=O)O)C(=O)N[C@H](C(=O)N[C@H]2CCCCNC(=O)[C@H](CC(N)=O)NC(=O)[C@@H](CC(=O)O)NC(=O)[C@H](Cc3cnc[nH]3)NC(=O)[C@@H](Cc3ccccc3)NC(=O)[C@H]([C@@H](C)CC)NC(=O)[C@@H](CCCN)NC2=O)[C@@H](C)CC)CS1 [Bacitracin] ({Ileψ(thiazoline)Cys}-L[dE]IK[dOrn]I[dF]H[dD]N; lactam 4-C) when you can.
0.75-1.13
